molecular target: aRSV-Fab (Fab fragment of anti-RSV monoclonal IgG Palivizumab, Synagis); assay: SPR (Biacore 3000), aRSV-Fab on CM5 chip, peptide flowed, 25 C, pH 7.4, 1:1 fit
The following binders are listed with their measured koff values.
Could you give me the number in s⁻¹? Just the number is fine.

Answered examples (2):
INSERT INTO results (binder, outcome_measure, result_number) VALUES
  ('LB5t-A17H.1d (designed binder) GPLGSEQVTIKENIYFEDGTVQTHTFKGTFAEATAEAYRYADLLSKEHGKYTADLEDGGYTINIRFAG', 'koff', 0.0738),
  ('LB5t-T18Q.1d (designed binder) GPLGSEQVTIKENIYFEDGTVQTAQFKGTFAEATAEAYRYADLLSKEHGKYTADLEDGGYTINIRFAG', 'koff', 0.0296);

The record that follows has no koff shown yet.
Q: Answer with the recorded koff for the binder listed here: LB5t-T16A.1d (designed binder) GPLGSEQVTIKENIYFEDGTVQAATFKGTFAEATAEAYRYADLLSKEHGKYTADLEDGGYTINIRFAG
A: 0.0225
